Field: relative viability. Provide a value for each of the compounds that follow.
# Tested on: NCI-H2023
# method summary: relative viability (nuclei count vs DMSO), 5 days (fraction); higher = more cells survive
# setup conditions: first compound 0.1 µM
One number for each entry.

Cc1cn(-c2cc(NC(=O)c3ccc(C)c(Nc4nccc(-c5cccnc5)n4)c3)cc(C(F)(F)F)c2)cn1 [Nilotinib] + CC(=O)c1c(C)c2cnc(Nc3ccc(N4CCNCC4)cn3)nc2n(C2CCCC2)c1=O [Palbociclib] (partner 0.5 µM)    0.419
Cc1cn(-c2cc(NC(=O)c3ccc(C)c(Nc4nccc(-c5cccnc5)n4)c3)cc(C(F)(F)F)c2)cn1 [Nilotinib] + N=C(N)NC(=N)NCCc1ccccc1 [Phenformin] (partner 250 µM)    0.361
Cc1cn(-c2cc(NC(=O)c3ccc(C)c(Nc4nccc(-c5cccnc5)n4)c3)cc(C(F)(F)F)c2)cn1 [Nilotinib] + CC(C)C[C@H](NC(=O)[C@H](Cc1ccccc1)NC(=O)c1cnccn1)B(O)O [Bortezomib] (partner 0.002 µM)    0.206
Cc1cn(-c2cc(NC(=O)c3ccc(C)c(Nc4nccc(-c5cccnc5)n4)c3)cc(C(F)(F)F)c2)cn1 [Nilotinib] + COc1cccc2cc(-c3nc([C@H]4CC[C@H](C(=O)O)CC4)n4ncnc(N)c34)[nH]c12 [OSI-027] (partner 0.5 µM)    0.195

Now turn to the next compound.
## Task Given the compound Cc1cn(-c2cc(NC(=O)c3ccc(C)c(Nc4nccc(-c5cccnc5)n4)c3)cc(C(F)(F)F)c2)cn1 [Nilotinib] + Nc1ncn([C@H]2C[C@H](O)[C@@H](CO)O2)c(=O)n1 [Decitabine] (partner 2 µM) , write its reported relative viability.
## Result 0.298

---

# Test system: CAL-12T
# method summary: relative viability (nuclei count vs DMSO), 5 days (fraction); higher = more cells survive
# setup conditions: first compound 0.2 µM
readout type: relative viability
One number for each entry.

Before answering, review these 4 worked examples.
Cc1csc(=NC2CCCCC2)n1/N=C/c1ccc(O)c(O)c1O [MIM1] + CS(=O)(=O)N1CCN(Cc2cc3nc(-c4cccc5[nH]ncc45)nc(N4CCOCC4)c3s2)CC1 [Pictilisib] (partner 1 µM)    0.394
Cc1csc(=NC2CCCCC2)n1/N=C/c1ccc(O)c(O)c1O [MIM1] + Cc1cc(Nc2cc(N3CCN(C)CC3)nc(Sc3ccc(NC(=O)C4CC4)cc3)n2)n[nH]1 [Tozasertib] (partner 0.1 µM)    0.244
CCNC(=O)c1noc(-c2cc(C(C)C)c(O)cc2O)c1-c1ccc(CN2CCOCC2)cc1 [Luminespib] + NC(=O)Nc1cc(-c2cccc(F)c2)sc1C(=O)N[C@H]1CCCNC1 [AZD7762] (partner 0.2 µM)    0.182
Cc1csc(=NC2CCCCC2)n1/N=C/c1ccc(O)c(O)c1O [MIM1] + C[C@]1(O)C[C@@H](c2nc(-c3ccc4ccc(-c5ccccc5)nc4c3)c3c(N)nccn32)C1 [Linsitinib] (partner 1 µM)    0.803

## Task Given the compound CN1CCN(CCOc2cc(OC3CCOCC3)c3c(Nc4c(Cl)ccc5c4OCO5)ncnc3c2)CC1 [Saracatinib] + CS(=O)(=O)N1CCN(Cc2cc3nc(-c4cccc5[nH]ncc45)nc(N4CCOCC4)c3s2)CC1 [Pictilisib] (partner 1 µM) , write its reported relative viability.
## Result 0.399

---

# Tested on: NCI-H460
# method summary: relative viability (nuclei count vs DMSO), 5 days (fraction); higher = more cells survive
# setup conditions: first compound 0.2 µM
Binary call on relative viability with cut-off 0.07: strictly below means true (1), and equality or higher means false (0).

Below are worked cases with known answers.
CCNC(=O)c1noc(-c2cc(C(C)C)c(O)cc2O)c1-c1ccc(CN2CCOCC2)cc1 [Luminespib] + COc1cc2c(Oc3ccc(NC(=O)C4(C(=O)Nc5ccc(F)cc5)CC4)cc3F)ccnc2cc1OCCCN1CCOCC1 [Foretinib] (partner 0.25 µM)    true (1)
CN1CCN(CCOc2cc(OC3CCOCC3)c3c(Nc4c(Cl)ccc5c4OCO5)ncnc3c2)CC1 [Saracatinib] + O=C(c1cc(Cc2n[nH]c(=O)c3ccccc23)ccc1F)N1CCN(C(=O)C2CC2)CC1 [Olaparib] (partner 8 µM)    false (0)
Cc1csc(=NC2CCCCC2)n1/N=C/c1ccc(O)c(O)c1O [MIM1] + Nc1ncn([C@H]2C[C@H](O)[C@@H](CO)O2)c(=O)n1 [Decitabine] (partner 2 µM)    false (0)
Cc1csc(=NC2CCCCC2)n1/N=C/c1ccc(O)c(O)c1O [MIM1] + N=C(N)NC(=N)NCCc1ccccc1 [Phenformin] (partner 250 µM)    false (0)
Cc1csc(=NC2CCCCC2)n1/N=C/c1ccc(O)c(O)c1O [MIM1] + CS(=O)(=O)N1CCN(Cc2cc3nc(-c4cccc5[nH]ncc45)nc(N4CCOCC4)c3s2)CC1 [Pictilisib] (partner 1 µM)    false (0)

## Task Decide: relative viability of Cc1csc(=NC2CCCCC2)n1/N=C/c1ccc(O)c(O)c1O [MIM1] + CC(=O)c1c(C)c2cnc(Nc3ccc(N4CCNCC4)cn3)nc2n(C2CCCC2)c1=O [Palbociclib] (partner 0.5 µM) strictly below 0.07?
## Result false (0)

## Task Decide: relative viability of CN1CCN(CCOc2cc(OC3CCOCC3)c3c(Nc4c(Cl)ccc5c4OCO5)ncnc3c2)CC1 [Saracatinib] + CCNC(=O)c1noc(-c2cc(C(C)C)c(O)cc2O)c1-c1ccc(CN2CCOCC2)cc1 [Luminespib] (partner 0.01 µM) strictly below 0.07?
## Result true (1)

## Task Decide: relative viability of Cc1csc(=NC2CCCCC2)n1/N=C/c1ccc(O)c(O)c1O [MIM1] + CCNC(=O)c1noc(-c2cc(C(C)C)c(O)cc2O)c1-c1ccc(CN2CCOCC2)cc1 [Luminespib] (partner 0.01 µM) strictly below 0.07?
## Result true (1)

---

# Tested on: NCI-H1437
# method summary: relative viability (nuclei count vs DMSO), 5 days (fraction); higher = more cells survive
# setup conditions: first compound 0.2 µM
Field: relative viability. Provide a value for each of the compounds that follow.
Numbers only.

CN1CCN(CCOc2cc(OC3CCOCC3)c3c(Nc4c(Cl)ccc5c4OCO5)ncnc3c2)CC1 [Saracatinib] + NC(=O)Nc1cc(-c2cccc(F)c2)sc1C(=O)N[C@H]1CCCNC1 [AZD7762] (partner 0.2 µM)    1.17
CCNC(=O)c1noc(-c2cc(C(C)C)c(O)cc2O)c1-c1ccc(CN2CCOCC2)cc1 [Luminespib] + Nc1ncn([C@H]2C[C@H](O)[C@@H](CO)O2)c(=O)n1 [Decitabine] (partner 2 µM)    0.229

Now turn to the next compound.
## Task Given the compound CCNC(=O)c1noc(-c2cc(C(C)C)c(O)cc2O)c1-c1ccc(CN2CCOCC2)cc1 [Luminespib] + CC1(C)CCC(c2ccc(Cl)cc2)=C(CN2CCN(c3ccc(C(=O)NS(=O)(=O)c4ccc(N[C@H](CCN5CCOCC5)CSc5ccccc5)c(S(=O)(=O)C(F)(F)F)c4)cc3)CC2)C1 [Navitoclax] (partner 0.5 µM) , write its reported relative viability.
## Result 0.128

---

# System: NCI-H596
# method summary: relative viability (nuclei count vs DMSO), 5 days (fraction); higher = more cells survive
# setup conditions: first compound 0.2 µM
readout type: relative viability
Numbers only.

Before answering, review these 2 worked examples.
Cc1csc(=NC2CCCCC2)n1/N=C/c1ccc(O)c(O)c1O [MIM1] + O=C(CCCCCCC(=O)Nc1ccccc1)NO [Vorinostat] (partner 1 µM)    0.719
Cc1csc(=NC2CCCCC2)n1/N=C/c1ccc(O)c(O)c1O [MIM1] + C[C@@H](Oc1cc(-c2cnn(C3CCNCC3)c2)cnc1N)c1c(Cl)ccc(F)c1Cl [Crizotinib] (partner 1 µM)    0.965

Now turn to the next compound.
## Task Given the compound Cc1csc(=NC2CCCCC2)n1/N=C/c1ccc(O)c(O)c1O [MIM1] + O=C(c1cc(Cc2n[nH]c(=O)c3ccccc23)ccc1F)N1CCN(C(=O)C2CC2)CC1 [Olaparib] (partner 8 µM) , write its reported relative viability.
## Result 0.741

---

# Tested on: NCI-H2347
# method summary: relative viability (nuclei count vs DMSO), 5 days (fraction); higher = more cells survive
# setup conditions: first compound 2 µM
Field: relative viability. Provide a value for each of the compounds that follow.
Give bare numbers.

Before answering, review these 5 worked examples.
CN1CCN(CCOc2cc(OC3CCOCC3)c3c(Nc4c(Cl)ccc5c4OCO5)ncnc3c2)CC1 [Saracatinib] + Nc1ncn([C@H]2C[C@H](O)[C@@H](CO)O2)c(=O)n1 [Decitabine] (partner 2 µM)    0.578
CN1CCN(CCOc2cc(OC3CCOCC3)c3c(Nc4c(Cl)ccc5c4OCO5)ncnc3c2)CC1 [Saracatinib] + CC(=O)c1c(C)c2cnc(Nc3ccc(N4CCNCC4)cn3)nc2n(C2CCCC2)c1=O [Palbociclib] (partner 0.5 µM)    0.432
Cc1csc(=NC2CCCCC2)n1/N=C/c1ccc(O)c(O)c1O [MIM1] + NC(=O)Nc1cc(-c2cccc(F)c2)sc1C(=O)N[C@H]1CCCNC1 [AZD7762] (partner 0.2 µM)    0.797
CN1CCN(CCOc2cc(OC3CCOCC3)c3c(Nc4c(Cl)ccc5c4OCO5)ncnc3c2)CC1 [Saracatinib] + CS(=O)(=O)N1CCN(Cc2cc3nc(-c4cccc5[nH]ncc45)nc(N4CCOCC4)c3s2)CC1 [Pictilisib] (partner 1 µM)    0.527
CN1CCN(CCOc2cc(OC3CCOCC3)c3c(Nc4c(Cl)ccc5c4OCO5)ncnc3c2)CC1 [Saracatinib] + Cc1nc(NC(=O)N2CCC[C@H]2C(N)=O)sc1-c1ccnc(C(C)(C)C(F)(F)F)c1 [Alpelisib] (partner 2 µM)    0.902

// batch mode: one relative viability value per listed entry
1. Cc1csc(=NC2CCCCC2)n1/N=C/c1ccc(O)c(O)c1O [MIM1] + CS(=O)(=O)N1CCN(Cc2cc3nc(-c4cccc5[nH]ncc45)nc(N4CCOCC4)c3s2)CC1 [Pictilisib] (partner 1 µM)
2. CN1CCN(CCOc2cc(OC3CCOCC3)c3c(Nc4c(Cl)ccc5c4OCO5)ncnc3c2)CC1 [Saracatinib] + CC1(C)CCC(c2ccc(Cl)cc2)=C(CN2CCN(c3ccc(C(=O)NS(=O)(=O)c4ccc(N[C@H](CCN5CCOCC5)CSc5ccccc5)c(S(=O)(=O)C(F)(F)F)c4)cc3)CC2)C1 [Navitoclax] (partner 0.5 µM)
3. Cc1csc(=NC2CCCCC2)n1/N=C/c1ccc(O)c(O)c1O [MIM1] + CCNC(=O)c1noc(-c2cc(C(C)C)c(O)cc2O)c1-c1ccc(CN2CCOCC2)cc1 [Luminespib] (partner 0.01 µM)
4. CN1CCN(CCOc2cc(OC3CCOCC3)c3c(Nc4c(Cl)ccc5c4OCO5)ncnc3c2)CC1 [Saracatinib] + N=C(N)NC(=N)NCCc1ccccc1 [Phenformin] (partner 250 µM)
5. Cc1csc(=NC2CCCCC2)n1/N=C/c1ccc(O)c(O)c1O [MIM1] + Cc1nc(NC(=O)N2CCC[C@H]2C(N)=O)sc1-c1ccnc(C(C)(C)C(F)(F)F)c1 [Alpelisib] (partner 2 µM)

## Result
0.72
0.599
0.236
0.342
1.13
